I'd appreciate it if you could supply IC50 values for the items below.
# System: 935938-334-R-J1-PDC spheroids with HUVEC/MSC, viability
# PROTOCOL SUMMARY: Anticancer human tumor 935938-334-R-J1-PDC patient-derived small intestine adenocarcinoma cell line growth inhibition [PI3K]
# APPLIED CONDITIONS: curve of first compound; second compound 0.1 µM
Note: unit nM is implicit; provide only the numeric part.

Prompt: State the recorded IC50 for this entry: C#Cc1c(F)ccc2cc(O)cc(-c3ncc4c(N5CC6CCC(C5)N6)nc(OCC56CCCN5CC(F)C6)nc4c3F)c12 (stereo not drawn) + CC(Nc1ccc2c(c1)OCCn1cc(N3C(=O)OCC3C(F)F)nc1-2)C(N)=O
Completion: 922

Prompt: Another compound to look at: Cn1nccc1Nc1nccc(-c2ccn(C(CO)c3ccc(Cl)c(F)c3)c(=O)c2)n1 (stereo not drawn) + CC(Nc1ncnc2nc[nH]c12)c1cc2cccc(Cl)c2c(=O)n1-c1ccccc1
Completion: 1460

Prompt: Another compound to look at: Cn1nccc1Nc1nccc(-c2ccn(C(CO)c3ccc(Cl)c(F)c3)c(=O)c2)n1 (stereo not drawn) + CC(Nc1ccc2c(c1)OCCn1cc(N3C(=O)OCC3C(F)F)nc1-2)C(N)=O
Completion: 777

----------
# Tested on: 935938-334-R-J1-PDC spheroids with HUVEC/MSC, viability
# PROTOCOL SUMMARY: Anticancer human tumor 935938-334-R-J1-PDC cell line growth inhibition [PI3K];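 also: compound exposure lasted seven days before viability was read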;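 as to viability, T/C: percent of vehicle DMSO treated spheroid viability so 100% = untreated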
# APPLIED CONDITIONS: second compound 0.316 µM; first compound 1 µM; stronger effect = lower value
I'd appreciate it if you could supply viability, T/C values for the items below.
Note: unit % is implicit; provide only the numeric part.

Prompt: State the recorded viability, T/C for this entry: C[C@@H](NC(=O)c1ncnc(N)c1Cl)c1ncc(C(=O)Nc2cc(C(F)(F)F)c(Cl)cn2)s1 + Cc1nc(NC(=O)N2CCCC2C(N)=O)sc1-c1ccnc(C(C)(C)C(F)(F)F)c1
Completion: 87.8

Prompt: Another molecule to look at: C#Cc1c(F)ccc2cc(O)cc(-c3ncc4c(N5CC6CCC(C5)N6)nc(OCC56CCCN5CC(F)C6)nc4c3F)c12 (stereo not drawn) + Cc1nc(NC(=O)N2CCCC2C(N)=O)sc1-c1ccnc(C(C)(C)C(F)(F)F)c1
Completion: 59.5

Prompt: Another molecule to look at: CC(Cn1ccc(-c2ccc(C#N)c(Cl)c2)n1)NC(=O)c1cc(C(C)O)[nH]n1 (stereo not drawn) + COc1c(OCCCN2CCOCC2)ccc2c3n(c(=NC(=O)c4cnc(N)nc4)nc12)CCN3
Completion: 36

----------
# Test system: 935938-334-R-J1-PDC spheroids with HUVEC/MSC, viability
# PROTOCOL SUMMARY: Anticancer human tumor 935938-334-R-J1-PDC cell line growth inhibition [PI3K];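 also: compound exposure lasted seven days before viability was read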
# APPLIED CONDITIONS: curve of first compound; second compound 1 µM
QUANTITY MEASURED: IC50

Prompt: State the recorded IC50 for this entry: CNC(=O)c1ccc(N2C(=S)N(c3ccc(C#N)c(C(F)(F)F)c3)C(=O)C2(C)C)cc1F + Cc1nc(NC(=O)N2CCCC2C(N)=O)sc1-c1ccnc(C(C)(C)C(F)(F)F)c1
Completion: > 10 µM

Prompt: Another compound to look at: CC1(C)CCC(Nc2ncc(C(F)(F)F)c(-c3c[nH]c4c(P(C)(C)=O)c(C#N)ccc34)n2)CN1 (stereo not drawn) + Cc1nc(NC(=O)N2CCCC2C(N)=O)sc1-c1ccnc(C(C)(C)C(F)(F)F)c1
Completion: < 0.0316 µM

Prompt: Another compound to look at: CNC(=O)c1ccc(N2C(=S)N(c3ccc(C#N)c(C(F)(F)F)c3)C(=O)C2(C)C)cc1F + CC(Nc1ncnc2nc[nH]c12)c1cc2cccc(Cl)c2c(=O)n1-c1ccccc1
Completion: > 10 µM
